- Experimental Target: Steroid 17-alpha-hydroxylase/17,20 lyase (Macaca fascicularis, UniProt Q2XVA1)
- Sequence (Q2XVA1 whole entry): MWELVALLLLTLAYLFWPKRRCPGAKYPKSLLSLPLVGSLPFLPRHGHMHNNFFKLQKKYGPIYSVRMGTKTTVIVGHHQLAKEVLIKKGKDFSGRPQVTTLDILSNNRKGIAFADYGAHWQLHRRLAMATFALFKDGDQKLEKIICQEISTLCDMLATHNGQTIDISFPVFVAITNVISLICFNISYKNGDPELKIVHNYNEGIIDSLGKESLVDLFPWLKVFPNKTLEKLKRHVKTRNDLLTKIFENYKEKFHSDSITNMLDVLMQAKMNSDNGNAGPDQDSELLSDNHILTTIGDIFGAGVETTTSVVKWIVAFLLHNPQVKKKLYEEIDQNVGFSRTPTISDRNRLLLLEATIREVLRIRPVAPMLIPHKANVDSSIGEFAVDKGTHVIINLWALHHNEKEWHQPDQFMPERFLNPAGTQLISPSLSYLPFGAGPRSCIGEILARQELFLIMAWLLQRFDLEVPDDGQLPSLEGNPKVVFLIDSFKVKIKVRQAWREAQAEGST
- Test: Inhibition of CYP17A1 in cynomolgus monkey adrenal microsomes using [3H]-pregnenolone as substrate incubated for 45 mins by scintillation proximity assay in presence of NADPH
- Parameters: species or system Adrenal gland
Parameter: IC50 (nM)

a: C[C@]12CC[C@H](O)CC1=CC[C@@H]1C2CC[C@]2(C)C(c3cccnc3)=CCC12 (some centres not stated)
b: Cc1ccncc1-c1cccc2c1ncn2CC(F)(F)F
// which entry reports the smaller IC50, a or b ? API: response body contains the label of the selected item.
b
(b: 2 nM, a: 3 nM)

----------
- Test: AUC in cynomolgus monkey plasma at 4 mg/kg, po after 0.25 to 45 hrs by LC-MS/MS analysis
- Type: ADME, organism-based, Macaca fascicularis
- Set-up: dose 4 mg/kg, time upper 45 hr, time lower 0.25 hr, route oral
Parameter: AUC (µM·h)
Output spec: scalar in µM·h, unitless text.

What measured AUC goes with Cc1ccncc1-c1cccc2c1ncn2CC(F)(F)F ?
12.3

----------
- Experimental Target: Cytochrome P450 1A2 (Homo sapiens)
- Sequence (P05177 whole entry): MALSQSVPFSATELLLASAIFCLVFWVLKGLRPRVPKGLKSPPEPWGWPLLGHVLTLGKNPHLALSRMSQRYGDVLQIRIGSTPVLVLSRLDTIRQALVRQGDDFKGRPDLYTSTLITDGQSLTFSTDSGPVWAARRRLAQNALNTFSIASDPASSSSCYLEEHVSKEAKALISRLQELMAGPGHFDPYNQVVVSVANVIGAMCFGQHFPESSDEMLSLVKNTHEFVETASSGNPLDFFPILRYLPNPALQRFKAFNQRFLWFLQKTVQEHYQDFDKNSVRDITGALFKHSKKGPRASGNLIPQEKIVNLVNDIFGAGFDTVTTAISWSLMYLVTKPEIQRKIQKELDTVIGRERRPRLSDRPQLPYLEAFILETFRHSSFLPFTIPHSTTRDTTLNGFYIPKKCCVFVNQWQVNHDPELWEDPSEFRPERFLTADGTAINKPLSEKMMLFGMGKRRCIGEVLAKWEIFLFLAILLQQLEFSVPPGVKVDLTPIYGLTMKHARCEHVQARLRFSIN
pIC50: −log10 of the molar value.
Parameter: pIC50

Below: 3 molecules and their reported pIC50.
>  <Given Smiles>
Cc1ccncc1-c1cccc2c1cnn2-c1cscn1

>  <pIC50>
7.15

$$$$
>  <Given Smiles>
Cc1ccncc1-c1cccc2c1cnn2-c1ccccc1

>  <pIC50>
6.92

$$$$
>  <Given Smiles>
Cc1ccncc1-c1cccc2c1cnn2-c1ccccn1

>  <pIC50>
6.85

$$$$

1: Cc1ccncc1-c1cccc2c1ncn2-c1cnccn1
2: Cc1ccncc1-c1cccc2c1ncn2CC(F)(F)F
3: Cc1ccncc1-c1cccc2c1ncn2-c1ccccn1
Write the entries in order, lowest recorded pIC50 first. In plain terms: list the labels in the order you were asked to.
2, 1, 3

----------
- Test: Volume of distribution at steady state in cynomolgus monkey plasma at 2 mg/kg, iv by LC-MS/MS analysis
- Type: ADME, organism-based, Macaca fascicularis
- Recorded Conditions: read-out: Vdss
Parameter: Vd (L/kg)
Express the result in L/kg but write the number alone.

I'd like to know its Vd. The compound in question is Cc1ccncc1-c1cccc2c1ncn2CC(F)(F)F
4.4

----------
- Test: Oral bioavailability in cynomolgus monkey plasma at 4 mg/kg after 0.25 to 45 hrs by LC-MS/MS analysis
- Type: ADME, organism-based, Macaca fascicularis
Parameter: bioavailability (%)
Only the number, expressed in %, is required.

Fill blank: measured bioavailability of the compound Cc1ccncc1-c1cccc2c1ncn2CC(F)(F)F is ____.
97

----------
- Test: Cmax in cynomolgus monkey plasma at 4 mg/kg, po after 0.25 to 45 hrs by LC-MS/MS analysis
- Assay type: ADME, organism-based, Macaca fascicularis
- Set-up: dose 4 mg/kg, route oral
Parameter: Cmax (nM)
Only the number, expressed in nM, is required.

# Cmax lookup, item Cc1ccncc1-c1cccc2c1ncn2CC(F)(F)F
3000

----------
- Test: Metabolic stability in cynomolgus monkey liver microsomes assessed as parent compound remaining at 0.5 uM incubated for 10 mins
- Format: ADME, Macaca fascicularis
- Recorded Conditions: read-out: Stability
Parameter: remaining at 10 min, 0.5 µM (%)

Use the examples below as a reference point.
>  <Given Smiles>
Cc1ccncc1-c1cccc2c1ncn2-c1ccccn1

>  <Units Text>
%

>  <Measured Value>
100

$$$$
>  <Given Smiles>
Cc1ccncc1-c1cccc2c1cnn2-c1ccccc1

>  <Units Text>
%

>  <Measured Value>
39

$$$$
>  <Given Smiles>
Cc1ccncc1-c1cccc2c1ncn2-c1cscn1

>  <Units Text>
%

>  <Measured Value>
50

$$$$
>  <Given Smiles>
Cc1ccncc1-c1cccc2c1ncn2-c1cnccn1

>  <Units Text>
%

>  <Measured Value>
83

$$$$
>  <Given Smiles>
Cc1ccncc1-c1cccc2c1ncn2-c1nccs1

>  <Units Text>
%

>  <Measured Value>
42

$$$$

I: Cc1ccncc1-c1cccc2c1cnn2-c1cnccn1
II: Cc1ccncc1-c1cccc2c1ncn2CC(F)(F)F
III: Cc1ccncc1-c1cccc2c1cnn2-c1ccccn1
Let's sort these by remaining at 10 min, 0.5 µM, smallest first. Go ahead? Write the labels in rank order as requested.
III, I, II

----------
- Test: Intrinsic permeability from apical to basolateral side in human Caco2 cells
- Format: ADME, cell-based
- Recorded Conditions: Caco-2
Parameter: Papp A→B (×10⁻⁶ cm/s)
// return numeric value only (unit: ×10⁻⁶ cm/s, not printed)

Looking for the measured Papp A→B of Cc1ccncc1-c1cccc2c1ncn2CC(F)(F)F , can you help?
40

----------
- Experimental Target: Steroid 17-alpha-hydroxylase/17,20 lyase (Macaca fascicularis, UniProt Q2XVA1)
- Test: Inhibition of CYP17A1 in cynomolgus monkey using [3H]-pregnenolone as substrate incubated for 45 mins by scintillation proximity assay in presence of NADPH
pIC50: −log10 of the molar value.
Parameter: pIC50

1: C[C@]12CC[C@H](O)CC1=CC[C@@H]1C2CC[C@]2(C)C(c3cccnc3)=CCC12 (some centres not stated)
2: Cc1ccncc1-c1cccc2c1ncn2CC(F)(F)F
Choose between 1 and 2 : whose measured pIC50 value is numerically larger? To answer, give the label that identifies your chosen option.
1
(1: 8.70, 2: 8.40)

----------
- Test: Metabolic stability in human liver microsomes assessed as parent compound remaining at 0.5 uM incubated for 10 mins
- Assay type: ADME
- Recorded Conditions: read-out: Stability
Parameter: remaining at 10 min, 0.5 µM (%)

>  <Given Smiles>
Cc1ccncc1-c1cccc2c1cnn2-c1ccc(F)cc1

>  <Parameter>
remaining at 10 min, 0.5 µM

>  <Units Text>
%

>  <Measured Value>
100

$$$$
>  <Given Smiles>
Cc1ccncc1-c1cccc2c1cnn2-c1cnccn1

>  <Parameter>
remaining at 10 min, 0.5 µM

>  <Units Text>
%

>  <Measured Value>
72

$$$$

A: Cc1ccncc1-c1cccc2c1ncn2-c1cnccn1
B: Cc1ccncc1-c1cccc2c1cnn2-c1cscn1
When A and B are compared, which has the higher number for remaining at 10 min, 0.5 µM? Response format: the label of the selected entry.
A
(A: 98%, B: 62%)

----------
- Test: Tmax in cynomolgus monkey plasma at 4 mg/kg, po after 0.25 to 45 hrs by LC-MS/MS analysis
- Type: ADME, organism-based, Macaca fascicularis
Parameter: Tmax (h)
Express your answer in h, writing the number without its unit.

Query: Tmax; subject: Cc1ccncc1-c1cccc2c1ncn2CC(F)(F)F
1.3

----------
# Selectivity ratio per entry
- Experimental Target: Steroid 17-alpha-hydroxylase/17,20 lyase (Homo sapiens)
- Sequence (P05093 whole entry): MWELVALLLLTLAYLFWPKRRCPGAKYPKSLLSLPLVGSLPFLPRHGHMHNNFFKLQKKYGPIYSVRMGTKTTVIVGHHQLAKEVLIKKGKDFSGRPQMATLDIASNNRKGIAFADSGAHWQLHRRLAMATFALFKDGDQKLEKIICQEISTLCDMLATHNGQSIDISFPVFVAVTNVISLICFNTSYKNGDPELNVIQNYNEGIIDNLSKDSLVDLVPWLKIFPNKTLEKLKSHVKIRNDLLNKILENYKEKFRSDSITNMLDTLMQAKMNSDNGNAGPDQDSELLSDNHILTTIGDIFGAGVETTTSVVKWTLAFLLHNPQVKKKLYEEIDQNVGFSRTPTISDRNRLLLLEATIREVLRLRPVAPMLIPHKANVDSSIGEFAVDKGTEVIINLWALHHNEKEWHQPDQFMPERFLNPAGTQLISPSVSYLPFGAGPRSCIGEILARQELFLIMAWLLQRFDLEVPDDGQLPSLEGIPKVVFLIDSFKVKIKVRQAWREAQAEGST
- Test: Selectivity ratio of human CYP17A1 hydroxylase activity expressed in Escherichia coli using pregnenolone substrate to human CYP17A1 lyase activity expressed in HEK293 cell microsomes using [3H]-hydroxypregnenolone substrate
Could you respond with only the numeric value?

Previously resolved entries follow.
>  <Given Smiles>
Cc1ccncc1-c1cccc2c1ncn2-c1nccs1

>  <Selectivity ratio>
14

$$$$
>  <Given Smiles>
Cc1ccncc1-c1cccc2c1ncn2-c1cnccn1

>  <Selectivity ratio>
18

$$$$
>  <Given Smiles>
Cc1ccncc1-c1cccc2c1ncn2-c1ccccn1

>  <Selectivity ratio>
8

$$$$

Quick check: Selectivity ratio of Cc1ccncc1-c1cccc2c1ncn2CC(F)(F)F ?
10

----------
- Test: Intrinsic permeability from basolateral to apical side in human Caco2 cells
- Assay type: ADME, cell-based
- Recorded Conditions: Caco-2
Parameter: Papp B→A (×10⁻⁶ cm/s)
The figure you give is taken to be in ×10⁻⁶ cm/s; do not add the unit.

Look up Papp B→A: Cc1ccncc1-c1cccc2c1ncn2CC(F)(F)F
30

----------
- Experimental Target: Cytochrome P450 11B1, mitochondrial (Homo sapiens)
- Sequence (P15538 whole entry): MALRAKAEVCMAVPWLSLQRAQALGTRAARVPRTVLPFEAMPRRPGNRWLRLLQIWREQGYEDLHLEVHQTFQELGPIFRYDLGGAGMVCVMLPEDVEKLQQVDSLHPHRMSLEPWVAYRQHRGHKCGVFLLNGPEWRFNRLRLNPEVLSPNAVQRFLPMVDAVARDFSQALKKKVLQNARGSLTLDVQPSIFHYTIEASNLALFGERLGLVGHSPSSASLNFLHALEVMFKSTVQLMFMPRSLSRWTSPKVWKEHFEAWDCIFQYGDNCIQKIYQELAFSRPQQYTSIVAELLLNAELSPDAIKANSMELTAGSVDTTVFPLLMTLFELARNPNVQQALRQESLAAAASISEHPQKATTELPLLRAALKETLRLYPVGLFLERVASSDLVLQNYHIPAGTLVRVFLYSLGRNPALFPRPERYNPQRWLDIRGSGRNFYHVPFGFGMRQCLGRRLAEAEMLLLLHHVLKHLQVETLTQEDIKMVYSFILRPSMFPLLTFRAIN
- Test: Inhibition of CYP11B1 in human H295R cells using deoxycorticosterone as substrate incubated for 48 hrs by LC-MS method
Parameter: IC50 (nM)
Answer with a number only, understood to be in nM.

IC50 lookup needed for C[C@]12CC[C@H](O)CC1=CC[C@@H]1C2CC[C@]2(C)C(c3cccnc3)=CCC12 (some centres not stated) , thanks.
872

Data credit: ChEMBL document CHEMBL3779801
